Measured inhibition at 10 µM of individual entries
Biological target: bradykinin receptor 1 (B1R) of the rat (Rattus norvegicus, UniProt P97583)
Construct: expressed in transfected cells; host or cells: CHO K1 cells
Assay: Functional study on the bradykinin receptor 1 (B1R), rat: FLIPR Ca2+ influx assay
Assay type: cell-based
Conditions: test substance 10 μM; CHO K1 cells transfected with rat B1R; Des-Arg9-bradykinin at EC80; Ca2+ influx (Fluo-4, FLIPR); read-out: B1R antagonism, rat [10 μM] % inhibition
Quick note: give the figure in %, leave out the unit.

compound	value-unit	inhibition at 10 µM
CN(C)C(c1ccccc1)C1CCC(NC(=O)CCCCN(C)S(=O)(=O)c2c(Cl)cc(Cl)cc2Cl)CC1 (stereo not shown)	%	60
CN(C)C(c1ccccc1)C1CCC(NC(=O)CC2c3ccccc3CCN2S(=O)(=O)c2ccc(Cl)c(Cl)c2)CC1 (stereo not shown)	%	0
CN(C)C(CCc1ccccc1)C1CCC(CNC(=O)C2Cc3ccccc3N2S(=O)(=O)c2ccc(Cl)c(Cl)c2)CC1 (stereo not shown)	%	12

// query inhibition at 10 µM for CN(C)C(c1ccc(Cl)cc1)C1CCC(CCNC(=O)c2ccccc2N(C)S(=O)(=O)c2ccc(Cl)c(Cl)c2)CC1 (stereo not shown) ?
// result 11

###

Measured inhibition at 10 µM of individual entries
Target: bradykinin receptor 1 (B1R) of the rat (Rattus norvegicus, UniProt P97583)
Construct: expressed in transfected cells; host or cells: CHO K1 cells
Sequence (P97583 1-337): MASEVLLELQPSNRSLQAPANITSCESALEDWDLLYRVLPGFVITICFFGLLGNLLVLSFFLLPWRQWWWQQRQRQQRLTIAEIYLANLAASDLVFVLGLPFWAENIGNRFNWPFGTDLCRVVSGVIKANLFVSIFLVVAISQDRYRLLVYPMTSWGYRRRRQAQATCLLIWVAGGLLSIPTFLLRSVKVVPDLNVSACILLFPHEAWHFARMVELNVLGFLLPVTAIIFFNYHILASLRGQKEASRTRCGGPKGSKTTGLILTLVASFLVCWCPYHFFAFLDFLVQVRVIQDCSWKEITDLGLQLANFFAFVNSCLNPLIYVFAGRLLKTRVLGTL
Assay: Functional study on the bradykinin receptor 1 (B1R), rat: FLIPR Ca2+ influx assay
Assay type: cell-based
Conditions: test substance 10 μM; CHO K1 cells transfected with rat B1R; Des-Arg9-bradykinin at EC80; Ca2+ influx (Fluo-4, FLIPR); read-out: B1R antagonism, rat [10 μM] % inhibition

compound	inhibition at 10 µM
Cc1cc(S(=O)(=O)N2CCCCC2CCC(=O)N2CCC(C(CCc3ccccc3)N3CCN(C)CC3)CC2)c(C)cc1Cl (stereo not shown)	97%
COc1cc(C)c(S(=O)(=O)N(C)CCCNC(=O)NC2CCC(C(c3ccccc3)N(C)C)CC2)c(C)c1C (stereo not shown)	56%
CN(C)C(c1cccc(F)c1)C1CCC(CCNC(=O)CC2c3ccccc3CCN2S(=O)(=O)c2ccc(Cl)c(Cl)c2)CC1 (stereo not shown)	41%
CN(C)C(c1ccc(Cl)cc1)C1CCC(CCNC(=O)CC2c3ccccc3CCN2S(=O)(=O)c2ccc(Cl)c(Cl)c2)CC1 (stereo not shown)	18%
CN1CCN(C(c2ccc(F)cc2)C2CCN(C(=O)CC3CCCCN3S(=O)(=O)c3cccc(C(F)(F)F)c3)CC2)CC1 (stereo not shown)	99%
CN1CCN(C(c2ccccc2)C2CCC(NC(=O)CC3CCCN3S(=O)(=O)c3ccc(Cl)c(Cl)c3)CC2)CC1 (stereo not shown)	33%

Lab note: next compound to report on.
// query inhibition at 10 µM for CN(C)C(CCc1ccccc1)C1CCC(CNC(=O)c2ccccc2N(C)S(=O)(=O)c2ccc(Cl)c(Cl)c2)CC1 (stereo not shown) ?
// result 42%

###

Molecular target: bradykinin receptor 1 (B1R) of the rat (Rattus norvegicus, UniProt P97583)
Construct: expressed in transfected cells; host or cells: CHO K1 cells
Test: Functional study on the bradykinin receptor 1 (B1R), rat: FLIPR Ca2+ influx assay
Format: cell-based
Settings: test substance 10 μM; CHO K1 cells transfected with rat B1R; Des-Arg9-bradykinin at EC80; Ca2+ influx (Fluo-4, FLIPR); read-out: B1R antagonism, rat [10 μM] % inhibition
Measured inhibition at 10 µM of individual entries
Give the number first and the unit second.

Below: 5 compounds and their reported inhibition at 10 µM.
compound	inhibition at 10 µM
COc1ccc(S(=O)(=O)N2CCc3ccccc3C2CC(=O)NC2CCC(C(c3cccc(F)c3)N(C)C)CC2)cc1 (stereo not shown)	76%
O=C(CC1C(=O)NCCN1S(=O)(=O)c1ccc(Cl)cc1Cl)NCC1CCC(C(CCc2ccccc2)N2CCOCC2)CC1 (stereo not shown)	20%
O=C(CC1C(=O)Nc2ccccc2N1S(=O)(=O)c1ccc(Cl)c(Cl)c1)NC1CCC(C(c2ccccc2)N2CCOCC2)CC1 (stereo not shown)	44%
O=C(CC1C(=O)Nc2ccccc2N1S(=O)(=O)c1ccc(Cl)c(Cl)c1)NC1CCC(C(CCc2ccccc2)N2CCOCC2)CC1 (stereo not shown)	19%
COc1ccc(S(=O)(=O)N2CCc3ccccc3C2CC(=O)NCCC2CCC(C(c3ccc(Cl)cc3)N(C)C)CC2)cc1 (stereo not shown)	34%

// query inhibition at 10 µM for O=C(CC1CCCCN1S(=O)(=O)c1ccc(Cl)c(Cl)c1)NCC1CCC(C(CCc2ccccc2)N2CCCC2)CC1 (stereo not shown) ?
// result 19%

// query Another compound: O=C(CC1CCCN1S(=O)(=O)c1ccc(Cl)c(Cl)c1)NCC1CCC(C(CCc2ccccc2)N2CCCC2)CC1 (stereo not shown)
// result 2%

###

Target: human μ-opiate receptor (Homo sapiens, UniProt P35372)
Construct: purchased PerkinElmer Life Sciences, Zaventem, Belgium RB-HOM; host or cells: CHO-K1 cells (membrane preparation)
Sequence (P35372 whole entry): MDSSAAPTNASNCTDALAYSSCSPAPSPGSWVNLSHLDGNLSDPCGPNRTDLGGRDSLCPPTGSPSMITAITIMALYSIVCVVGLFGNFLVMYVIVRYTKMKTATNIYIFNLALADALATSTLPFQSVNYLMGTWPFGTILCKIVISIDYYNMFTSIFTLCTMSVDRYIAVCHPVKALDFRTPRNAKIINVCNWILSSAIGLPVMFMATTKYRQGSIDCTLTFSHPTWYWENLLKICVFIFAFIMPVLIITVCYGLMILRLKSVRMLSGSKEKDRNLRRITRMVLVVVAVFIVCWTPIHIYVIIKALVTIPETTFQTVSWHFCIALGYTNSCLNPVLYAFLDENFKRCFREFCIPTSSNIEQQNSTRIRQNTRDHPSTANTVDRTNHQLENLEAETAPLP
Experiment: Affinity for the human μ-opiate receptor ([3H]-naloxone displacement, SPA)
Conditions: test substance 1 μmol/l; inhibition of specific [3H]-naloxone binding; CHO-K1 receptor membrane preparation; read-out: μ-Opioid receptor [1 μM] % inhibition
The label depends only on inhibition at 1 µM: t if it is at least 30%, f if it is smaller.

Below are worked cases with known answers.
molecule	class-name
O=C1NCCN(S(=O)(=O)c2ccc(Cl)cc2Cl)C1CC(=O)N1CCC(C(c2ccccc2)N2CCOCC2)CC1 (stereo not drawn)	f
O=C(CC1C(=O)NCCN1S(=O)(=O)c1ccc(Cl)cc1Cl)NCC1CCC(C(CCc2ccccc2)N2CCOCC2)CC1 (stereo not drawn)	f
O=C(CC1C(=O)NCCN1S(=O)(=O)c1ccc(Cl)cc1Cl)NC1CCC(C(CCc2ccccc2)N2CCOCC2)CC1 (stereo not drawn)	t

// query Does inhibition at 1 µM meet or surpass 30% for CN1CCN(C(Cc2ccccc2)C2CCN(C(=O)CC3CCCCN3S(=O)(=O)c3cccc(C(F)(F)F)c3)CC2)CC1 (stereo not drawn) ?
// result f

// query Another molecule: O=C(CC1CCCN1S(=O)(=O)c1ccc(Cl)c(Cl)c1)NCC1CCC(C(CCc2ccccc2)N2CCCC2)CC1 (stereo not drawn)
// result t

// query Another molecule: CN1CCN(C(c2ccccc2)C2CCN(C(=O)CC(NS(=O)(=O)c3ccc4ccccc4c3)c3ccccc3)CC2)CC1 (stereo not drawn)
// result t

// query Another molecule: Cc1cc(S(=O)(=O)N2CCCCC2CCC(=O)N2CCC(C(Cc3ccccc3)N3CCN(C)CC3)CC2)c(C)cc1Cl (stereo not drawn)
// result f

// query Another molecule: O=C(CC1C(=O)Nc2ccccc2N1S(=O)(=O)c1ccc(Cl)c(Cl)c1)NCC1CCC(C(CCc2ccccc2)N2CCOCC2)CC1 (stereo not drawn)
// result f

// query Another molecule: O=C(CC1CCCN1S(=O)(=O)c1ccc(Cl)c(Cl)c1)NC1CCC(C(CCc2ccccc2)N2CCOCC2)CC1 (stereo not drawn)
// result f

// query Another molecule: O=C(CC1CCCCN1S(=O)(=O)c1ccc(Cl)c(Cl)c1)NC1CCC(C(c2ccccc2)N2CCOCC2)CC1 (stereo not drawn)
// result f

// query Another molecule: CN1CCN(C(Cc2ccccc2)C2CCN(C(=O)CC(NS(=O)(=O)c3ccc4ccccc4c3)c3ccccc3)CC2)CC1 (stereo not drawn)
// result f

// query Another molecule: CN(C)C(c1ccccc1)C1CCC(NC(=O)CCCCN(C)S(=O)(=O)c2c(Cl)cc(Cl)cc2Cl)CC1 (stereo not drawn)
// result t

// query Another molecule: CN1CCN(C(c2cccc(F)c2)C2CCN(C(=O)CC3CCCCN3S(=O)(=O)c3cccc(C(F)(F)F)c3)CC2)CC1 (stereo not drawn)
// result f

// query Another molecule: CN1CCN(C(c2ccccc2)C2CCC(NC(=O)CC3CCCN3S(=O)(=O)c3ccc(Cl)c(Cl)c3)CC2)CC1 (stereo not drawn)
// result t

// query Another molecule: O=C(CC1CCCCN1S(=O)(=O)c1ccc(Cl)c(Cl)c1)NCC1CCC(C(CCc2ccccc2)N2CCOCC2)CC1 (stereo not drawn)
// result f

// query Another molecule: O=C(CC1C(=O)NCCN1S(=O)(=O)c1ccc(Cl)cc1Cl)NC1CCC(C(CCc2ccccc2)N2CCCCC2)CC1 (stereo not drawn)
// result t

Attribution: patent US8119633B2
